Quick reference for logP among some compounds
Give your answer as a number; write no unit.

Worked examples, 4 compounds total:
compound: COC(=O)CC(C)C
logP: 1.82
//
compound: CCCC(C)C1(CC)C(=O)N=C(S)NC1=O (stereo not drawn)
logP: 2.85
//
compound: CN(C)CC(O)c1ccccc1 (stereo not drawn)
logP: 1.54
//
compound: NC(=O)C1(N2CCCCC2)CCN(CCCC(=O)c2ccc(F)cc2)CC1
logP: 2.02

Query: // lookup logP for `CCNc1nc(NC(C)C)nc(SC(F)F)n1`
Reply: 3.7

Query: // lookup logP for `CCN(CC)CCOC(=O)C=Cc1ccc(F)cc1`
Reply: 3.52

Query: // lookup logP for `COc1cnc(NS(=O)(=O)c2ccc(N)cc2)nc1`
Reply: 0.41

Query: // lookup logP for `CCCCc1ccc(S(N)(=O)=O)cc1`
Reply: 2.45
